What minimum inhibitory concentration (MIC), Sucrose was measured for each of the following?
Test system: S. aureus 78
Test: Microbroth dilution MIC with and without sucrose recovery
Format: cell-based, Staphylococcus aureus
Conditions: S. aureus 78 recovered through sucrose (Method 2); MIC given as multiple of S/I/R
Answers are plain numbers, in R.

Solved entries (count: 2):
compound	unit-abbrev	val
CCC[C@@H]1C[C@@H](C(=O)N[C@@H]([C@H]2O[C@H](SC)[C@H](O)[C@@H](O)[C@H]2O)[C@H](C)Cl)N(C)C1 [Clindamycin, clindamycin]	R	4
CC[C@H]1OC(=O)[C@H](C)[C@@H](O[C@H]2C[C@@](C)(OC)[C@@H](O)[C@H](C)O2)[C@H](C)[C@@H](O[C@@H]2O[C@H](C)C[C@H](N(C)C)[C@H]2O)[C@](C)(O)C[C@@H](C)C(=O)[C@H](C)[C@@H](O)[C@]1(C)O [Erythromycin, erythromycin]	R	2

--- query ---
Q: Using known records, supply minimum inhibitory concentration (MIC), Sucrose for Cc1onc(-c2ccccc2)c1C(=O)N[C@@H]1C(=O)N2[C@@H]1SC(C)(C)[C@@H]2C(=O)O [Oxacillin, oxacillin]
A: 4

Each recorded value in this set is attributed to patent US20240368667A1.
